METHOD: Permeability from apical to basolateral side of human Caco-2 cells
Format: ADME, cell-based
REPORTED CONDITIONS: read-out: permeability
OBSERVATION TYPE: Papp A→B (×10⁻⁶ cm/s)
Numbers only, in ×10⁻⁶ cm/s.

Query: Please look at this compound and report its Papp A→B: "NC(=O)[C@@]1(Cc2ccc(OCc3cc(-c4ccccc4)nc4ccccc34)c(F)c2)C[C@@H]1C(=O)NO"
Response: 0.3

###

METHOD: AUC in Sprague-Dawley rat at 10 mg/kg, po
Assay type: ADME, organism-based
Design: dose 10 mg/kg, route oral
REPORTED CONDITIONS: plasma
OBSERVATION TYPE: AUC

Query: Please look at this compound and report its AUC: "N#C[C@@]1(Cc2ccc(OCc3cc(-c4ccccc4)nc4ccccc34)cc2)C[C@@H]1C(=O)NO"
Response: > 2.5 µM·h
